Listed below: Ki values for each entry.
Target: C1b domain of human PKCα (Homo sapiens, UniProt P17252)
Construct: Genes encoding C1b domains of human PKCα, δ, ε, θ, and PKD1 (PKCμ) were synthesized; made in house; host or cells: E. coli BL21(DE3)
Assay: biochemical
Assay type: binding
Details: Ki PKCα, 3H-PDBu competition
Description: Compounds described in this disclosure were tested for binding affinity to C1b domain of PKC isoforms. […] The plate was incubated at 37° C. on a shaker at 300 rpm for 10 minutes and then put on ice for 20 minutes. […] The bottom of the filter plate was sealed and 50 μL of MicroScint-20 (PerkinElmer) cocktail was added to each well. ^3H-PDBu trapped in each well was counted using PerkinElmer MicroBeta2 Reader. […] Kd is the binding affinity of each protein preparation to ^3H-PDBu, determined experimentally.

Compound smiles: CC1=C[C@H]2[C@@]3(O)[C@H](C)C[C@]4(OC(=O)CC5CC6(CNC6)C5)[C@H]([C@@H]3C=C(CO)C[C@]2(O)C1=O)C4(C)C
Subject of test: C1b domain of human PKCα (Homo sapiens, UniProt P17252)
Ki: 1000 to 2000 nM

Compound smiles: CC1=C[C@H]2[C@@]3(O)[C@H](C)C[C@]4(OC(=O)C[C@@H](N)c5ccccc5)[C@H]([C@@H]3C=C(CO)C[C@]2(O)C1=O)C4(C)C
Subject of test: C1b domain of human PKCα (Homo sapiens, UniProt P17252)
Ki: > 8000 nM

Compound smiles: CC1=C[C@H]2[C@@]3(O)[C@H](C)C[C@]4(OC(=O)[C@H](N)CCCCCCc5ccc(C(F)F)cc5)[C@H]([C@@H]3C=C(CO)C[C@]2(O)C1=O)C4(C)C
Subject of test: C1b domain of human PKCα (Homo sapiens, UniProt P17252)
Ki: 800 to 1000 nM

Compound smiles: CC1=C[C@H]2[C@@]3(O)[C@H](C)C[C@]4(OC(=O)C[C@@H](N)Cc5ccccc5)[C@H]([C@@H]3C=C(CO)C[C@]2(O)C1=O)C4(C)C
Subject of test: C1b domain of human PKCα (Homo sapiens, UniProt P17252)
Ki: 1000 to 2000 nM

Compound smiles: CC1=C[C@H]2[C@@]3(O)[C@H](C)C[C@]4(OC(=O)CCc5cnn(C)c5)[C@H]([C@@H]3C=C(CO)C[C@]2(O)C1=O)C4(C)C
Subject of test: C1b domain of human PKCα (Homo sapiens, UniProt P17252)
Ki: > 8000 nM

Compound smiles: CC1=C[C@H]2[C@@]3(O)[C@H](C)C[C@]4(OC(=O)[C@@H](N)CCC5CCCCC5)[C@H]([C@@H]3C=C(CO)C[C@]2(O)C1=O)C4(C)C
Subject of test: C1b domain of human PKCα (Homo sapiens, UniProt P17252)
Ki: 30 to 60 nM

Compound smiles: CC1=C[C@H]2[C@@]3(O)[C@H](C)C[C@]4(OC(=O)C[C@H](N)c5ccccc5)[C@H]([C@@H]3C=C(CO)C[C@]2(O)C1=O)C4(C)C
Subject of test: C1b domain of human PKCα (Homo sapiens, UniProt P17252)
Ki: 1000 to 2000 nM

Compound smiles: CC1=C[C@H]2[C@@]3(O)[C@H](C)C[C@]4(OC(=O)C(C)(C)C)[C@H]([C@@H]3C=C(CO)C[C@]2(O)C1=O)C4(C)C
Subject of test: C1b domain of human PKCα (Homo sapiens, UniProt P17252)
Ki: 800 to 1000 nM

Compound smiles: CC1=C[C@H]2[C@@]3(O)[C@H](C)C[C@]4(OC(=O)C5CC6(CNC6)C5)[C@H]([C@@H]3C=C(CO)C[C@]2(O)C1=O)C4(C)C
Subject of test: C1b domain of human PKCα (Homo sapiens, UniProt P17252)
Ki: > 8000 nM

Compound smiles: CC1=C[C@H]2[C@@]3(O)[C@H](C)C[C@]4(OC(=O)[C@@H](N)CC5CCCC5)[C@H]([C@@H]3C=C(CO)C[C@]2(O)C1=O)C4(C)C
Subject of test: C1b domain of human PKCα (Homo sapiens, UniProt P17252)
Ki: 100 to 200 nM

Compound smiles: CC1=C[C@H]2[C@@]3(O)[C@H](C)C[C@]4(OC(=O)[C@@H](N)CCS(C)(=O)=O)[C@H]([C@@H]3C=C(CO)C[C@]2(O)C1=O)C4(C)C
Subject of test: C1b domain of human PKCα (Homo sapiens, UniProt P17252)
Ki: > 8000 nM

###

Molecular target: C1b domain of human PKCδ (Homo sapiens)
Construct: Genes encoding C1b domains of human PKCα, δ, ε, θ, and PKD1 (PKCμ) were synthesized; made in house; host or cells: E. coli BL21(DE3)
Sequence (Q05655 230-280 limits assumed): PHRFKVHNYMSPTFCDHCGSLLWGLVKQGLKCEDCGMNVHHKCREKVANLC
Test: Competitive 3H-PDBu binding to C1b domain of PKCδ
Details: Ki PKCδ, 3H-PDBu competition
Each item that follows carries a reported Ki.
Measurement name: Ki

Compound: CC1=C[C@H]2[C@@]3(O)[C@H](C)C[C@]4(OC(=O)[C@@H](N)CCCCCCc5ccc(C(F)(F)F)cc5)[C@H]([C@@H]3C=C(CO)C[C@]2(O)C1=O)C4(C)C
Subject of test: C1b domain of human PKCδ (Homo sapiens)
Measurement name: Ki
Result value: 5 to 10 nM
--
Compound: CC1=C[C@H]2[C@@]3(O)[C@H](C)C[C@]4(OC(=O)CCCc5ccccc5)[C@H]([C@@H]3C=C(CO)C[C@]2(O)C1=O)C4(C)C
Subject of test: C1b domain of human PKCδ (Homo sapiens)
Measurement name: Ki
Result value: < 5 nM
--
Compound: CC1=C[C@H]2[C@@]3(O)[C@H](C)C[C@]4(OC(=O)[C@H](O)Cc5ccccc5)[C@H]([C@@H]3C=C(CO)C[C@]2(O)C1=O)C4(C)C
Subject of test: C1b domain of human PKCδ (Homo sapiens)
Measurement name: Ki
Result value: 100 to 200 nM
--
Compound: CC1=C[C@H]2[C@@]3(O)[C@H](C)C[C@]4(OC(=O)[C@@H](N)C(C)(C)c5ccc(C(F)(F)F)cc5)[C@H]([C@@H]3C=C(CO)C[C@]2(O)C1=O)C4(C)C
Subject of test: C1b domain of human PKCδ (Homo sapiens)
Measurement name: Ki
Result value: < 5 nM
--
Compound: CC1=C[C@H]2[C@@]3(O)[C@H](C)C[C@]4(OC(=O)CCc5ncc(-c6ccc(Cl)cc6)o5)[C@H]([C@@H]3C=C(CO)C[C@]2(O)C1=O)C4(C)C
Subject of test: C1b domain of human PKCδ (Homo sapiens)
Measurement name: Ki
Result value: < 5 nM
--
Compound: CC1=C[C@H]2[C@@]3(O)[C@H](C)C[C@]4(OC(=O)C(Cc5ccccc5)C(=O)O)[C@H]([C@@H]3C=C(CO)C[C@]2(O)C1=O)C4(C)C (stereo partly shown)
Subject of test: C1b domain of human PKCδ (Homo sapiens)
Measurement name: Ki
Result value: 400 to 800 nM
--
Compound: CC1=C[C@H]2[C@@]3(O)[C@H](C)C[C@]4(OC(=O)[C@H](N)CCCc5ccccc5)[C@H]([C@@H]3C=C(CO)C[C@]2(O)C1=O)C4(C)C
Subject of test: C1b domain of human PKCδ (Homo sapiens)
Measurement name: Ki
Result value: 30 to 60 nM
--
Compound: CC1=C[C@H]2[C@@]3(O)[C@H](C)C[C@]4(OC(=O)[C@@H](N)C5Cc6ccccc6C5)[C@H]([C@@H]3C=C(CO)C[C@]2(O)C1=O)C4(C)C
Subject of test: C1b domain of human PKCδ (Homo sapiens)
Measurement name: Ki
Result value: < 5 nM
--
Compound: CC1=C[C@H]2[C@@]3(O)[C@H](C)C[C@]4(OC(=O)[C@@H](N)CCCCCCCCc5ccccc5)[C@H]([C@@H]3C=C(CO)C[C@]2(O)C1=O)C4(C)C
Subject of test: C1b domain of human PKCδ (Homo sapiens)
Measurement name: Ki
Result value: 1 to 30 nM
--
Compound: CC1=C[C@H]2[C@@]3(O)[C@H](C)C[C@]4(OC(=O)CCc5cnn(C)c5)[C@H]([C@@H]3C=C(CO)C[C@]2(O)C1=O)C4(C)C
Subject of test: C1b domain of human PKCδ (Homo sapiens)
Measurement name: Ki
Result value: 200 to 400 nM

###

Documented pKi across a set of compounds
Target: C1b domain of human PKCα (Homo sapiens)
Construct: Genes encoding C1b domains of human PKCα, δ, ε, θ, and PKD1 (PKCμ) were synthesized; made in house; host or cells: E. coli BL21(DE3)
Experiment: biochemical
Assay type: binding
Settings: Ki PKCα, 3H-PDBu competition
pKi: −log10 of the molar value.

Compound smiles: CC1=C[C@H]2[C@@]3(O)[C@H](C)C[C@]4(OC(=O)[C@H](N)Cc5c[nH]c6ccccc56)[C@H]([C@@H]3C=C(CO)C[C@]2(O)C1=O)C4(C)C
pKi: 5.70 to 6.00
//
Compound smiles: CC1=C[C@H]2[C@@]3(O)[C@H](C)C[C@]4(OC(=O)[C@@H](N)CCCCCCc5ccc(C(F)F)cc5)[C@H]([C@@H]3C=C(CO)C[C@]2(O)C1=O)C4(C)C
pKi: 6.40 to 6.70
//
Compound smiles: CC1=C[C@H]2[C@@]3(O)[C@H](C)C[C@]4(OC(=O)CCCc5ccccc5)[C@H]([C@@H]3C=C(CO)C[C@]2(O)C1=O)C4(C)C
pKi: 6.70 to 7.00
